B1: MMP1 (parent)
chain: FVRGDHRDNSPFDGPGGNLAHAFQ

Variants of: B1
Assay: protein stability index of a GFP-peptide fusion (GPS, HEK-293T) (PSI 1-6); higher = more stable;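 also: lentivirally expressed fusions sorted by FACS into six bins by GFP to DsRed ratio, PSI derived from sequencing read proportions per bin multiplied by bin number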
Conditions: c terminus: a fixed tail appended
protein stability index reference

# mutation.key, protein stability index
measured = [
    ("A22K", 2.42),
    ("L19S", 1.15),
    ("D8S", 2.08),
    ("P11G", 2.89),
    ("R7D", 1.56),
    ("G4Y", 2.09),
    ("R3V", 2.37),
    ("F23Y", 2.12),
    ("V2S", 2.76),
    ("N18A", 2.74),
    ("R3K", 1.45),
    ("G16K", 1.52),
    ("R7N", 1.7),
    ("N9I", 3.22),
    ("P15H", 1.79),
    ("G16C", 2.63),
    ("F12T", 2.39),
    ("G14F", 2.93),
    ("G16S", 2.23),
    ("G17S", 2.3),
    ("G16H", 1.87),
    ("A22D", 2.44),
]
